Test system: HOP-92 NSCLC
Experiment: NCI tumour cell line growth inhibition, 48 h; in the data active = GI50 below about 0.43 µM; inactive = the rest
Entry note: the call must match one of label 1 for active, label 0 for inactive

Example results:
O=C(/C=C/c1ccco1)c1ccc(Nc2nc(Nc3ccc(F)cc3)nc(Nc3ccc(F)cc3)n2)cc1 :: label 0
Cc1c(Cl)cccc1NC(=O)c1sc2nc3c(cc2c1N)CCCC3 :: label 0
NS(=O)(=O)c1ccc(NC(=O)c2cccc(NC3=C(Cl)C(=O)N(Cc4ccccc4)C3=O)c2)cc1 :: label 0
COc1cccc(NC2=C(Cl)C(=O)N(Cc3ccc(Cl)cc3)C2=O)c1 :: label 0
O=C(/C=C/c1cccc2ccccc12)Nc1ncc(Cc2ccccc2)s1 :: label 1

Exam item: What was the test verdict on C=CC(C)(O)CC/C=C(\CO)C(=O)OC1C(C)OC(O[C@](C)(C=C)CC/C=C(\CO)C(=O)O[C@H]2C[C@@]3(C(=O)OC4OC(CO)C(O)C(O)C4OC4OC(C)C(OC5OC(CO)C(O)C5O)C(OC5OC(CO)C(O)C(O)C5O)C4O)C(CC2(C)C)C2=CCC4[C@@]5(C)CC[C@H](OC6OC(COC7OC(C)C(O)C(O)C7OC7OCC(O)C(O)C7O)C(O)C(O)C6NC(C)=O)C(C)(C)C5CC[C@@]4(C)[C@]2(C)C[C@H]3O)C(O)C1O (stereo partly drawn) ?
Marked response: label 1

Exam item: What was the test verdict on CN1CCN(c2ccc3nc(-c4ccc(OCCCCN5CCN(CCCCN6C(=O)c7cccc8cccc(c78)C6=O)CC5)cc4)[nH]c3c2)CC1 ?
Marked response: label 0

Exam item: What was the test verdict on CC1OC(=O)C(C(C)C)NC(=O)C(C(C)C)OC(=O)C(C(C)C)NC(=O)C(C)OC(=O)C(C(C)C)NC(=O)C(C(C)C)OC(=O)C(C(C)C)NC(=O)C(C)OC(=O)C(C(C)C)NC(=O)C(C(C)C)OC(=O)C(C(C)C)NC1=O (stereo not drawn) ?
Marked response: label 1

----------
System: MDA-MB-435
Where a SMILES comes first, the peptide text is derived from it. The star is where a group is joined. Trt = c1ccc(C(c2ccccc2)(c2ccccc2)*)cc1; Cbz = O=C(OCc1ccccc1)*
Entry note: the call must match one of active, inactive

CN=C(N)N/N=C(\C)c1ccc2c(c1)Cc1ccccc1-2 :: inactive
O=C1/C(=C\c2ccccc2)C2OCC=C3CN4CCC56c7ccccc7N1C5C2C3CC46 (centres undefined) :: inactive
Cc1cc(Nc2nc(-c3ccncc3)nc3ccccc23)n[nH]1 :: inactive
COC(=O)C(CSC(c1ccccc1)(c1ccccc1)c1ccccc1)NC(=O)C(CC(N)=O)NC(=O)OCc1ccccc1 (stereo not drawn) (Cbz-Asn-Cys(Trt)-OMe; configuration not given here) :: inactive
Cc1cc2nc(-c3c(F)cccc3Cl)n(Cc3c(F)cccc3Cl)c2cc1C :: inactive

Exam item: What was the test verdict on COc1cc2c(cc1OCCCOc1ccc(-c3nc4ccc(N5CCN(C)CC5)cc4[nH]3)cc1)N=C[C@@H]1CCCN1C2=O ?
Marked response: active

Exam item: What was the test verdict on COc1cc(/C=N/NC(=O)c2ccccc2Nc2cccc(C(F)(F)F)c2)cc(OC)c1OC ?
Marked response: inactive

Exam item: What was the test verdict on NC(=O)c1ccc(N(C(N)=O)c2c(F)cccc2F)nc1-c1ccc(F)cc1F ?
Marked response: inactive

Exam item: What was the test verdict on CCCCCCCCCCSC(=N)N ?
Marked response: inactive

----------
System: EKVX NSCLC
Test: NCI tumour cell line growth inhibition, 48 h
For each of the molecules below, state its TGI.

COc1ccc2c(c1)c1c3n2CCNN=C3CCC1 :: > 100 µM
COc1ccc(-c2nc(C(=O)c3ccccc3)n(CC(=O)c3ccc(Cl)cc3)c2-c2ccc(OC)cc2)cc1 :: > 100 µM
Cc1ccc(/C=C2/N=C(N/N=C\c3ccccc3)NC2=O)cc1 :: > 100 µM
O=C(Nc1ccc2ccccc2c1)c1cc2cc(CCl)ccc2oc1=O :: > 100 µM
Cn1cc(-c2nc(N[C@@H]3CCCC[C@@H]3N)c(F)c3c2C(=O)NC3)cn1 :: > 100 µM

List TGI for every entry below, keeping the order given.
1. CC1=CC(=O)NP(=O)(C23CC4CC(CC(C4)C2)C3)N1 (stereo not given)
2. CN(C)CCCNC(=O)c1cn2c(ccc3sc4ccccc4c(=O)c32)n1
3. C/C(=N\NC(N)=S)c1ccc(C2CCCCC2)cc1
4. CCCCCCCCCCCCCCCCOCC(O)CO (stereo not given)
5. COC(=O)C(C(=O)C(N)=O)c1csc(-n2nc(-c3ccccc3)cc2-c2ccccc2)n1 (stereo not given)

Marked response:
1. > 100 µM
2. 31.6 µM
3. > 100 µM
4. 36.3 µM
5. > 31.6 µM

----------
System: T-47D breast
Experiment: NCI tumour cell line growth inhibition, 48 h
readoutLabel: TGI (µM)
Give bare numbers, in µM.

Field: example entries. Status: answers known.
CN(C)/C=C/C=C(/C=N/S(=O)(=O)C(F)(F)F)C1C=CN(S(=O)(=O)C(F)(F)F)C=C1 :: 75
O=S(=O)(O)SCCNCCCCCC1CCCCC1 :: 35.7

Now for the compound whose TGI we want.
Exam item: What measured TGI goes with COC(=O)c1ccc(NCC2=C(Br)C(=O)C=CC2=O)cc1Cl ?
Marked response: 38.6

----------
Test system: U251 CNS
Experiment: NCI tumour cell line growth inhibition, 48 h; in the data active = GI50 below about 0.43 µM; inactive = the rest
Where a SMILES comes first, the peptide text is derived from it. The star is where a group is joined. Trt = c1ccc(C(c2ccccc2)(c2ccccc2)*)cc1; Cbz = O=C(OCc1ccccc1)*
Entry note: the call must match one of 1 for active, -1 for inactive

NC(=O)c1ccc(N(C(N)=O)c2c(F)cccc2F)nc1-c1ccc(F)cc1F :: -1
COc1cc2c(cc1OCCCOc1ccc(-c3nc4ccc(N5CCN(C)CC5)cc4[nH]3)cc1)N=C[C@@H]1CCCN1C2=O :: 1
CC(/C=N/N=C(N)N)=N\N=C(N)N :: -1
O=C(/C=C/c1ccc([N+](=O)[O-])cc1)c1cccc(Nc2nc(Nc3ccccc3)nc(Nc3ccccc3)n2)c1 :: -1
Cc1c(Cl)cccc1NC(=O)c1sc2nc3c(cc2c1N)CCCC3 :: -1
CCCN1CCC=C(c2ccc(Nc3nc(Nc4ccccc4C(N)=O)c4cc[nH]c4n3)c(C)c2)C1 :: -1
CC1OC(=O)C(C(C)C)NC(=O)C(C(C)C)OC(=O)C(C(C)C)NC(=O)C(C)OC(=O)C(C(C)C)NC(=O)C(C(C)C)OC(=O)C(C(C)C)NC(=O)C(C)OC(=O)C(C(C)C)NC(=O)C(C(C)C)OC(=O)C(C(C)C)NC1=O (centres undefined) :: 1
C/C(=N/O)c1ccc(Nc2cc(-n3ccnc3)c3ccccc3n2)cc1 :: -1

Exam item: What was the test verdict on COc1ccc(C2=Nc3c/c(=C\c4c(O)[nH]c5cc(Cl)ccc45)ccc3=N2)cc1 ?
Marked response: -1

Exam item: What was the test verdict on COc1ccc(C2=NC(c3ccc(Cl)cc3)C(c3ccc(Cl)cc3)N2C(=O)N2CCNC(=O)C2)c(OC(C)C)c1 (centres undefined) ?
Marked response: -1

Exam item: What was the test verdict on Cn1cc(-c2nc(N[C@@H]3CCCC[C@@H]3N)c(F)c3c2C(=O)NC3)cn1 ?
Marked response: -1

Exam item: What was the test verdict on Cc1c2ccncc2c(C)c2c1[nH]c1ccc(Cl)cc12 ?
Marked response: -1

Exam item: What was the test verdict on Nc1c(C(=O)Nc2cccc3ccccc23)sc2nc3c(cc12)C(=O)CCC3 ?
Marked response: 1

Exam item: What was the test verdict on Cc1cc2nc(-c3c(F)cccc3Cl)n(Cc3c(F)cccc3Cl)c2cc1C ?
Marked response: -1

Exam item: What was the test verdict on CC(=O)[C-](C(C)=O)c1ccccc1.CC(=O)[C-](C(C)=O)c1ccccc1.CC(=O)[C-](C(C)=O)c1ccccc1.[Cl-].[Zr+4] ?
Marked response: -1

Exam item: What was the test verdict on O=C(C=C=Nc1ccccc1)C(=O)N=C=Cc1ccccc1 ?
Marked response: -1

Exam item: What was the test verdict on O=C(Nc1cccc(C(F)(F)F)c1)c1cc2ccccc2cc1O ?
Marked response: -1

Exam item: What was the test verdict on [CH3][Sn]1([CH3])[O]CC(COc2cc(Cl)c(Cl)cc2Cl)[O]1 (centres undefined) ?
Marked response: -1

Exam item: What was the test verdict on COC(=O)C(CSC(c1ccccc1)(c1ccccc1)c1ccccc1)NC(=O)C(CC(N)=O)NC(=O)OCc1ccccc1 (stereo not drawn) (Cbz-Asn-Cys(Trt)-OMe; configuration not given here) ?
Marked response: -1

----------
Test system: HOP-92 NSCLC
Assay: NCI tumour cell line growth inhibition, 48 h
TGI vs 5 µM: at or above is Condition met, below is Condition not met.

Exam item: Given the entry CCOC(C)OC1CC(n2cc(C)c(=O)[nH]c2=O)OC1CO (centres undefined) , answer whether its TGI meets or surpasses 5 µM.
Marked response: Condition met
